Reported IC50 values follow for various compounds
Target: BCL6-NCOR2(SMRT) corepressor protein-protein interaction (Homo sapiens (Human), UniProt P41182)
Experiment: NanoBRET cell assay in transfected HEK293T cells
Assay type: cell-based
Details: further generated data (Table 2b); HEK293T cells, 6 hr; read-out: NanoBRET cell pIC50 (converted)
Enter your answer as a number in µM; do not include the unit.

Worked examples, 3 compounds total:
# COMPOUND, UNIT INFO, IC50
data = [
    ("C[C@@H](Nc1cc(=O)n(C)c2ccc(Nc3ccnc(Cl)c3C#N)cc12)C1CC1 [Example 10n]", "µM", 1.29),
    ("Cn1c(=O)cc(N[C@H](CO)C2CC2)c2cc(Nc3ccnc(Cl)c3C#N)ccc21 [Example 11a]", "µM", 3.39),
    ("CC(Nc1cc(=O)n(C)c2ccc(Nc3nc(N4CCC(C(=O)N(C)C)CC4)ncc3Cl)cc12)c1ncccn1 (stereo not drawn) [Example 17c]", "µM", 3.72),
]

Qu. I'd like to know its IC50. The compound in question is COCC(C)(C)Nc1cc(=O)n(C)c2ccc(Nc3nc(-n4nc(C)cc4C)ncc3Cl)cc12 [Example 14e]
Ans. 10

Qu. Which IC50 reading was recorded for the compound CC(Nc1cc(=O)n(CC2CC2)c2ccc(Nc3ccnc(Cl)c3Cl)cc12)c1ncccn1 (stereo not drawn) ?
Ans. 7.41

Qu. Value lookup for IC50; key = CC(Nc1cc(=O)n(C)c2ccc(Nc3nc(N4CC5(CCOCC5)C4)ncc3Cl)cc12)c1ncccn1 (stereo not drawn) [Example 17h]
Ans. 4.17

Qu. // lookup IC50 for CNC(=O)c1cc(Nc2ccc3c(c2)c(NC(C)c2ncccn2)cc(=O)n3C)c(C#N)c(Cl)n1 (stereo not drawn)
Ans. 0.933

Qu. So what does the record say about IC50 for C[C@@H](Nc1cc(=O)n(C)c2ccc(Nc3cc(-n4cc(CCO)cn4)ncc3Cl)cc12)C1CC1 [Example 15f] ?
Ans. 2.29

###

Target: human BCL6 BTB domain (Trx-6xHis-BCL6) (Homo sapiens (Human), UniProt P41182)
Assay: HTRF in vitro assay (BCL6 BTB domain / BCOR-AF633 peptide)
Type: binding
Details: initially generated data (Table 1a); 10 nM Trx-6xHis-BCL6, 1 nM anti-6xHis-Terbium cryptate
Reported HTRF pIC50 is given for each of the following compounds.
Just the number, please, no unit after it.

Consider the worked cases shown below.
# COMPOUND, HTRF pIC50
data = [
    ("CNC(=O)[C@@H](C)Nc1cc(=O)[nH]c2ccc(Nc3ccnc(Cl)c3C#N)cc12", 6.61),
    ("C[C@@H](CCO)Nc1cc(=O)n(C)c2ccc(Nc3ccnc(Cl)c3C#N)cc12", 6.31),
    ("CCNc1cc(=O)n(CCN2C(=O)CCC2=O)c2ccc(Nc3ccnc(Cl)c3C#N)cc12", 6.05),
    ("CC(CCO)Nc1nc(=O)n(C)c2ccc(Nc3ccnc(Cl)c3C#N)cc12 (stereo not drawn)", 6.19),
    ("CC(Nc1cc(=O)n(C)c2ccc(Nc3ccnc(Cl)c3C#N)cc12)c1cnccn1 (stereo not drawn)", 6.27),
]

Switching to the query record.
Qu. What does the record list as HTRF pIC50 for CC(Nc1cc(=O)n(C)c2ccc(Nc3cc(C(=O)O)nc(Cl)c3C#N)cc12)C1CC1 (stereo not drawn) ?
Ans. 6.78
